Provenance of the data: ChEMBL document CHEMBL4038350

- SYSTEM TESTED: Melanocortin receptor 4 (Mus musculus, UniProt P56450)
- Sequence (P56450 whole entry): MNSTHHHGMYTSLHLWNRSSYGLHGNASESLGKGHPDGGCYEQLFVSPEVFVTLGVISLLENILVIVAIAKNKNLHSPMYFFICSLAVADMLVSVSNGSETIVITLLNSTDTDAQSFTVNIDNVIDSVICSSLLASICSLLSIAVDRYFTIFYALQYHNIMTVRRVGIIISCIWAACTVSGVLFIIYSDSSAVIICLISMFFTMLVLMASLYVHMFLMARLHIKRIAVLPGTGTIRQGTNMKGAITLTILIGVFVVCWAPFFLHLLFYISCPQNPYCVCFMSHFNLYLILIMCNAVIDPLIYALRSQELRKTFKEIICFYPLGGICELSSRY
- MEASUREMENT DESCRIPTION: Antagonist activity at mouse melanocortin receptor 4 expressed in HEK293 cells assessed as inhibition of NDP-MSH-induced cAMP accumulation after 2 hrs by AlphaScreen assay
- Format: functional, cell-based
- MEASUREMENT CONTEXT: read-out: pA2 (converted)
Non-standard residues stand in square brackets, D forms with d. Residues, ends and D or L forms follow the SMILES beside them.
# Lookup of reported log10 of Kb keyed by entry
Please note: log10 values; quantity Kb; unit µM.

Some solved cases for reference:
C[C@@H]1NC(=O)[C@H](C)NC(=O)[C@H](Cc2ccccc2)NC(=O)[C@H](Cc2ccccc2)NC(=O)[C@H](CCCNC(=N)N)NC(=O)[C@@H]2CCCN2C(=O)[C@H]2CCCN2C(=O)[C@H](Cc2ccccc2)NC1=O = -1.32
C[C@@H]1NC(=O)[C@H]([C@@H](C)O)NC(=O)[C@H](Cc2ccccc2)NC(=O)[C@H](Cc2ccccc2)NC(=O)[C@H](CCCNC(=N)N)NC(=O)[C@@H]2CCCN2C(=O)[C@H]2CCCN2C(=O)[C@H](Cc2ccccc2)NC1=O (cyclo(RFFTAF[dP]P)) = -1.76
C[C@@H]1NC(=O)[C@H](CC(N)=O)NC(=O)[C@H](Cc2ccccc2)NC(=O)[C@H](Cc2ccccc2)NC(=O)[C@H](CCCNC(=N)N)NC(=O)[C@@H]2CCCN2C(=O)[C@H]2CCCN2C(=O)[C@H](C)NC1=O (cyclo(RFFNAA[dP]P)) = -2.16
C[C@@H]1NC(=O)[C@H](Cc2c[nH]c3ccccc23)NC(=O)[C@H](Cc2ccccc2)NC(=O)[C@H](Cc2ccccc2)NC(=O)[C@H](CCCNC(=N)N)NC(=O)[C@@H]2CCCN2C(=O)[C@H]2CCCN2C(=O)[C@H](Cc2ccccc2)NC1=O (cyclo(RFFWAF[dP]P)) = -0.81
C[C@@H]1NC(=O)[C@H](CC(=O)O)NC(=O)[C@H](Cc2ccccc2)NC(=O)[C@H](Cc2ccccc2)NC(=O)[C@H](CCCNC(=N)N)NC(=O)[C@@H]2CCCN2C(=O)[C@H]2CCCN2C(=O)[C@H](Cc2ccccc2)NC1=O = -0.79
C[C@@H]1NC(=O)[C@H](CCC(=O)O)NC(=O)[C@H](Cc2ccccc2)NC(=O)[C@H](Cc2ccccc2)NC(=O)[C@H](CCCNC(=N)N)NC(=O)[C@@H]2CCCN2C(=O)[C@H]2CCCN2C(=O)[C@H](Cc2ccccc2)NC1=O = -1.00

Per the records, this compound ( N=C(N)NCCC[C@@H]1NC(=O)[C@@H]2CCCN2C(=O)[C@H]2CCCN2C(=O)[C@H](Cc2ccccc2)NC(=O)[C@H](CO)NC(=O)[C@H](CC(N)=O)NC(=O)[C@H](Cc2ccccc2)NC(=O)[C@H](Cc2ccccc2)NC1=O (cyclo(RFFNSF[dP]P)) ) has log10 of Kb equal to -2.20

Entry under test: N=C(N)NCCC[C@@H]1NC(=O)[C@@H]2CCCN2C(=O)[C@H]2CCCN2C(=O)[C@H](Cc2ccccc2)NC(=O)[C@H](Cc2ccccc2)NC(=O)[C@H](CC(N)=O)NC(=O)[C@H](Cc2ccccc2)NC(=O)[C@H](Cc2ccccc2)NC1=O . Its log10 of Kb was 0.29

Reported log10 of Kb of CC(C)C[C@@H]1NC(=O)[C@H](Cc2ccccc2)NC(=O)[C@H](Cc2ccccc2)NC(=O)[C@H](CCCNC(=N)N)NC(=O)[C@@H]2CCCN2C(=O)[C@H]2CCCN2C(=O)[C@H](Cc2ccccc2)NC(=O)[C@H](C)NC1=O (cyclo(RFFLAF[dP]P)) : -1.34

log10 of Kb in this record for N=C(N)NCCC[C@@H]1NC(=O)[C@@H]2CCCN2C(=O)[C@H]2CCCN2C(=O)[C@H](Cc2ccccc2)NC(=O)CNC(=O)[C@H](CC(N)=O)NC(=O)[C@H](Cc2ccccc2)NC(=O)[C@H](Cc2ccccc2)NC1=O (cyclo(RFFNGF[dP]P)) : -0.10

The compound listed as N=C(N)NCCC[C@@H]1NC(=O)[C@@H]2CCCN2C(=O)[C@H]2CCCN2C(=O)[C@H](Cc2ccccc2)NC(=O)[C@H](Cc2c[nH]cn2)NC(=O)[C@H](CC(N)=O)NC(=O)[C@H](Cc2ccccc2)NC(=O)[C@H](Cc2ccccc2)NC1=O (cyclo(RFFNHF[dP]P)) has a reported log10 of Kb of -0.07

Field log10 of Kb (entry N=C(N)NCCC[C@@H]1NC(=O)[C@@H]2CCCN2C(=O)[C@H]2CCCN2C(=O)[C@H](Cc2ccccc2)NC(=O)[C@H](CCCCN)NC(=O)[C@H](CC(N)=O)NC(=O)[C@H](Cc2ccccc2)NC(=O)[C@H](Cc2ccccc2)NC1=O ) reads -0.11

Kindly note the recorded log10 of Kb for CC(C)C[C@@H]1NC(=O)[C@H](CC(N)=O)NC(=O)[C@H](Cc2ccccc2)NC(=O)[C@H](Cc2ccccc2)NC(=O)[C@H](CCCNC(=N)N)NC(=O)[C@@H]2CCCN2C(=O)[C@H]2CCCN2C(=O)[C@H](Cc2ccccc2)NC1=O , which is -0.18

----------
- SYSTEM TESTED: UniProtKB P33033
- Sequence (P33033 whole entry): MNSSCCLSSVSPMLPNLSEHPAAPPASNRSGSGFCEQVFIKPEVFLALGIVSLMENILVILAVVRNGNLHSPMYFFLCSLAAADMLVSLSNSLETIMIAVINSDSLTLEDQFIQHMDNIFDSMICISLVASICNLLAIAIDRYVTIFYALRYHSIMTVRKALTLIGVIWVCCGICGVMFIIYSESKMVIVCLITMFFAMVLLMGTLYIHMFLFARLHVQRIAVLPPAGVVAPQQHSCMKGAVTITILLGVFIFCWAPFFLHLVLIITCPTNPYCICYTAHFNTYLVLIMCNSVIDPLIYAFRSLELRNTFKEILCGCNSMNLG
- MEASUREMENT DESCRIPTION: Agonist activity at mouse melanocortin receptor 3 expressed in HEK293 cells assessed as increase in cAMP accumulation at 100 uM after 2 hrs by AlphaScreen assay relative to control
- Assay type: functional, cell-based
Non-standard residues stand in square brackets, D forms with d. Residues, ends and D or L forms follow the SMILES beside them.
MEASUREMENT KIND: Activity
Lab note: write values as number then unit, every time.

N=C(N)NCCC[C@@H]1NC(=O)[C@@H]2CCCN2C(=O)[C@H]2CCCN2C(=O)[C@H](Cc2ccccc2)NC(=O)[C@H](Cc2ccccc2)NC(=O)[C@H](CC(N)=O)NC(=O)[C@H](Cc2ccccc2)NC(=O)[C@H](Cc2ccccc2)NC1=O = 35%
CC(C)C[C@@H]1NC(=O)[C@H](CC(N)=O)NC(=O)[C@H](Cc2ccccc2)NC(=O)[C@H](Cc2ccccc2)NC(=O)[C@H](CCCNC(=N)N)NC(=O)[C@@H]2CCCN2C(=O)[C@H]2CCCN2C(=O)[C@H](Cc2ccccc2)NC1=O = 25%

Memo: N=C(N)NCCC[C@@H]1NC(=O)[C@@H]2CCCN2C(=O)[C@H]2CCCN2C(=O)[C@H](Cc2ccccc2)NC(=O)[C@H](CCCCN)NC(=O)[C@H](CC(N)=O)NC(=O)[C@H](Cc2ccccc2)NC(=O)[C@H](Cc2ccccc2)NC1=O , reported Activity: 45%

Field Activity (entry C[C@@H]1NC(=O)[C@H](Cc2c[nH]c3ccccc23)NC(=O)[C@H](Cc2ccccc2)NC(=O)[C@H](Cc2ccccc2)NC(=O)[C@H](CCCNC(=N)N)NC(=O)[C@@H]2CCCN2C(=O)[C@H]2CCCN2C(=O)[C@H](Cc2ccccc2)NC1=O (cyclo(RFFWAF[dP]P)) ) reads 40%

----------
- SYSTEM TESTED: Melanocortin receptor 4 (Mus musculus, UniProt P56450)
- MEASUREMENT DESCRIPTION: Antagonist activity at mouse melanocortin receptor 4 expressed in HEK293 cells assessed as inhibition of NDP-MSH-induced cAMP accumulation after 2 hrs by AlphaScreen assay
- Assay type: functional, cell-based
- MEASUREMENT CONTEXT: read-out: pA2 (converted)
MEASUREMENT KIND: Kb (nM)
# value in nM; strip the unit string

# molecule C[C@@H]1NC(=O)[C@H](Cc2ccccc2)NC(=O)[C@H](Cc2ccccc2)NC(=O)[C@H](Cc2ccccc2)NC(=O)[C@H](CCCNC(=N)N)NC(=O)[C@@H]2CCCN2C(=O)[C@H]2CCCN2C(=O)[C@H](Cc2ccccc2)NC1=O ; its Kb = 234

The recorded Kb for entry CCCC[C@@H]1NC(=O)[C@H](Cc2ccccc2)NC(=O)[C@H](Cc2ccccc2)NC(=O)[C@H](CCCNC(=N)N)NC(=O)[C@@H]2CCCN2C(=O)[C@H]2CCCN2C(=O)[C@H](Cc2ccccc2)NC(=O)[C@H](C)NC1=O equals 126

Form: molecule = C[C@@H]1NC(=O)[C@H](CO)NC(=O)[C@H](Cc2ccccc2)NC(=O)[C@H](Cc2ccccc2)NC(=O)[C@H](CCCNC(=N)N)NC(=O)[C@@H]2CCCN2C(=O)[C@H]2CCCN2C(=O)[C@H](Cc2ccccc2)NC1=O ; Kb = 20

For this molecule ( CC(C)[C@@H]1NC(=O)[C@H](Cc2ccccc2)NC(=O)[C@H](Cc2ccccc2)NC(=O)[C@H](CCCNC(=N)N)NC(=O)[C@@H]2CCCN2C(=O)[C@H]2CCCN2C(=O)[C@H](Cc2ccccc2)NC(=O)[C@H](C)NC1=O ), measured Kb is 1260
